Hello, the source for this data is the supplement of paper PMC10567573, in case you need it.

B1: HDAC6 (parent)
chain: KMKTRELHRESSNFDSIYICPSTF

Variants of: B1
Experiment: protein stability index of a GFP-peptide fusion (GPS, HEK-293T) (PSI 1-6); higher = more stable;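 also: lentivirally expressed fusions sorted by FACS into six bins by GFP to DsRed ratio, PSI derived from sequencing read proportions per bin multiplied by bin number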
Details: c terminus: a fixed tail appended
Reported Endpoint: protein stability index

Before answering, review these 3 worked examples.
{"Ordered Residues": "KMKTRELHRESSNFDSIIICPSTF [Y18I]", "Result": 2.31}
{"Ordered Residues": "LMKTRELHRESSNFDSIYICPSTF [K1L]", "Result": 1.83}
{"Ordered Residues": "KMKTRELHRESSNFHSIYICPSTF [D15H]", "Result": 1.44}

Entry KMKTRELHRESSNFDSIYICPSTE [F24E] — recorded protein stability index = 3.87

Entry KMKTQELHRESSNFDSIYICPSTF [R5Q] — recorded protein stability index = 2.08

Entry KMKTREEHRESSNFDSIYICPSTF [L7E] — recorded protein stability index = 3.2

Entry KMKTRELHREKSNFDSIYICPSTF [S11K] — recorded protein stability index = 2.72

Entry KMKTRELHRESSNNDSIYICPSTF [F14N] — recorded protein stability index = 3.05

Entry KMKTRELHRESSNFDSVYICPSTF [I17V] — recorded protein stability index = 2.27

Entry KMKTRWLHRESSNFDSIYICPSTF [E6W] — recorded protein stability index = 1.76

Entry KMKTRELHRESSNFNSIYICPSTF [D15N] — recorded protein stability index = 2.01

Entry PMKTRELHRESSNFDSIYICPSTF [K1P] — recorded protein stability index = 2.58

Entry KMKTRELHRESSNFDSITICPSTF [Y18T] — recorded protein stability index = 3.32
